# Test system: Haemophilus influenzae 1218
# protocol: MIC, microtiter broth dilution (NCCLS M100-S14), H. influenzae 1218 (susceptible)
# Assay type: cell-based
# test parameters: Haemophilus influenzae 1218
# Description: The assay described herein includes a panel of bacterial strains assembled to include a variety of target pathogenic species, including representatives of macrolide resistance mechanisms that have been characterized. In many cases, both the macrolide-susceptible parent strain and the macrolide-resistant strain derived from it are available to provide a more accurate assessment of the compound's ability to circumvent the resistance mechanism. […]
measurement type: MIC H. influenzae 1218 (µg/mL)
Only the number, expressed in µg/mL, is required.

Answered cases to consult:
Haemophilus influenzae 1218 assay, molecule CCC1OC(=O)C(C)C(=O)C(C)C(OC2OC(C)CC(N(C)C)C2O)C(C)(OC)CC(C)C(=O)C(C)C2N(C3CN(Cc4ccnc5ncccc45)C3)C(=O)OC12C (stereo not shown) , recorded MIC H. influenzae 1218 = 0.25

Haemophilus influenzae 1218 assay, molecule CCC1OC(=O)C(C)C(=O)C(C)C(OC2OC(C)CC(N(C)C)C2O)C(C)(OC)CC(C)C(=O)C(C)C2N(CC3CN(Cc4c[nH]c5ccccc45)C3)C(=O)OC12C (stereo not shown) , recorded MIC H. influenzae 1218 = 1

Haemophilus influenzae 1218 assay, molecule CCC1OC(=O)C(C)C(=O)C(C)C(OC2OC(C)CC(N(C)C)C2O)C(C)(OC)CC(C)C(=O)C(C)C2N(CC3CN(Cc4c[nH]c5cnccc45)C3)C(=O)OC12C (stereo not shown) , recorded MIC H. influenzae 1218 = 0.5

Haemophilus influenzae 1218 assay, molecule CCC1OC(=O)C(C)C(=O)C(C)C(OC2OC(C)CC(N(C)C)C2O)C(C)(OC)CC(C)C(=O)C(C)C2N(CC3CN(Cc4n[nH]c5ncccc45)C3)C(=O)OC12C.O=CO (stereo not shown) , recorded MIC H. influenzae 1218 = 0.25

Haemophilus influenzae 1218 assay, molecule CCC1OC(=O)C(C)C(=O)C(C)C(OC2OC(C)CC(N(C)C)C2O)C(C)(OC)CC(C)C(=O)C(C)C2N(CC3CN(C(=O)c4ccnc5ccccc45)C3)C(=O)OC12C.O=CO (stereo not shown) , recorded MIC H. influenzae 1218 = 0.5

Haemophilus influenzae 1218 assay, molecule `CC[C@H]1OC(=O)[C@H](C)C(=O)[C@H](C)[C@@H](O[C@@H]2O[C@H](C)C[C@H](N(C)C)[C@H]2O)[C@](C)(OC)C[C@@H](C)C(=O)[C@H](C)[C@H]2N(C3CN(Cc4c(Br)cnc5nccnc45)C3)C(=O)O[C@]12C` , recorded MIC H. influenzae 1218 = 1

Haemophilus influenzae 1218 assay, molecule CCC1OC(=O)C(C)C(=O)C(C)C(OC2OC(C)CC(N(C)C)C2O)C(C)(OC)CC(C)C(=O)C(C)C2N(CC3CN(C(c4ccccc4)c4ccccc4)C3)C(=O)OC12C (stereo not shown) , recorded MIC H. influenzae 1218 = 6.25

Haemophilus influenzae 1218 assay, molecule CCC1OC(=O)C(C)C(=O)C(C)C(OC2OC(C)CC(N(C)C)C2O)C(C)(OC)CC(C)C(=O)C(C)C2N(CC3CN(Cc4cnn(-c5cccc(F)c5)c4)C3)C(=O)OC12C (stereo not shown) , recorded MIC H. influenzae 1218 = 0.5

---
Haemophilus influenzae 1218 assay, molecule CCC1OC(=O)C(C)C(=O)C(C)C(OC2OC(C)CC(N(C)C)C2O)C(C)(OC)CC(C)C(=O)C(C)C2N(C3CN(Cc4ccncc4)C3)C(=O)OC12C (stereo not shown) , recorded MIC H. influenzae 1218 = 0.25

Haemophilus influenzae 1218 assay, molecule CC[C@H]1OC(=O)[C@H](C)[C@@H](OC(=O)N2CCCC2c2cccc(F)c2)[C@H](C)[C@@H](O[C@@H]2O[C@H](C)C[C@H](N(C)C)[C@H]2O)[C@](C)(OC)C[C@@H](C)C(=O)[C@H](C)[C@H]2N(CC3CN(Cc4c[nH]c5ncccc45)C3)C(=O)O[C@]12C (stereo partly shown) [Example 5.06] , recorded MIC H. influenzae 1218 = 2
